Tested on: Rabbit Skeletal myofibrils (rabbit psoas muscle)
Experiment: Myofibril ATPase assay (PK/LDH NADH-coupled), skeletal myofibrils
Type: biochemical
Conditions: Table 8
Method: Myofibril ATPase assays are known in the art to be useful in evaluating small molecules for the treatment of HCM and other cardiac indications. Myosin ATPase activity is assessed by using a coupled reaction system, in which ADP generated by the myosin ATPase function is coupled to the disappearance of NADH through the pyruvate kinase/lactate dehydrogenase (PK-LDH) system. ATPase activity produces ADP, which is used as a substrate for PK to produce pyruvate and regenerate ATP. […]
Below: a set of entries, each annotated with reported Rabbit Psoas IC25.
valueKind: Rabbit Psoas IC25 (µM)

{"structureSmiles": "CNC(=O)N1CC2(C1)c1cc(F)ccc1NC(=O)N2CC(=O)N[C@H](C)c1ncc(C#N)cc1F", "recordedResult": 86.41}
{"structureSmiles": "C[C@@H](NC(=O)CN1Cc2c(ccc(F)c2F)NC1=O)c1ccc2ccccc2n1", "recordedResult": 3.98}
{"structureSmiles": "N#Cc1ccc2c(c1)C1(CC1)N(CC(=O)N[C@H]1COc3cc(F)cc(F)c31)C(=O)N2", "recordedResult": 100}
{"structureSmiles": "C[C@@H](NC(=O)CN1Cc2c(ccc(F)c2F)NC1=O)c1ncc(C(N)=O)cc1O", "recordedResult": 36.83}
{"structureSmiles": "O=C(CN1Cc2cc(F)ccc2NC1=O)N[C@@H](CO)c1ccc(F)cc1F", "recordedResult": 9.306}
{"structureSmiles": "N#Cc1cnc2c(c1)COC[C@H]2NC(=O)CN1Cc2c(ccc(F)c2F)NC1=O", "recordedResult": 0.1318}
{"structureSmiles": "N#Cc1cnc2c(c1)OC[C@H]2NC(=O)CN1C(=O)Nc2cccc(C#N)c2C12CC2", "recordedResult": 0.08}
{"structureSmiles": "C[C@H](NC(=O)CN1Cc2c(C#N)cccc2NC1=O)c1ncc(C#N)cc1F", "recordedResult": 0.04006}
